Sourced from PubChem BioAssay (EPA / NIEHS)

Read-out: sulfotransferase 2A1 (SULT2A1), SULT2A1 (gene 6822)
Assay: LTEA_HepaRG_SULT2A1: Life Technologies and Expression Analysis (LTEA) Assay for sulfotransferase 2A1 (SULT2A1) using HepaRG (AID 2283531)
Conditions: mRNA level, 48 h; actives raise or lower the signal
Active and inactive are the calls of the source. Rule for the calls: active = hit-call score of the fitted dose curve at least 0.9, where 1 is the maximum; inactive = score below 0.9.
ENDPOINT: AC50

                              smiles_string   reported_result
0  CCc1cc(SCc2sc(-c3ccc(C(F)(F)F)cc3)nc2CN2CCN(c3ccc(OC)cc3)CC2)ccc1OCC(=O)O  5.72 µM (active)
1                          COC(=O)c1ccccc1O          inactive
2                                  CC(C)CCO          inactive
3                               O=C1CCCCCN1          inactive
4       Cc1c(-c2cccnc2)c2ccccc2n1CCCCC(=O)O          inactive
5                         C=CCCCCCCCCC(=O)O          inactive
6  COc1cccc(-c2ccc(/C=C\CN3CCCCCC3)cc2Cl)c1  83.2 µM (active)

###

Read-out: Pselectin, SELP (gene 6403)
Assay: BSK_4H_Pselectin: BioMAP Diversity Plus: 4H Assay for Pselectin Biomarker Activity (AID 2283026)
Details: primary human endothelial cells (HUVEC); actives raise or lower the signal
Calls of active or inactive are those of the source. How the source made its calls: active means hit-call score of the fitted dose curve at least 0.9, where 1 is the maximum; inactive means score below 0.9.
Labels: true (active), false (inactive)

>>> print(df.to_string())
                               smiles_string  assigned_label
 0  CC(C)c1cccc(C(C)C)c1N1C(=O)c2ccc(O)cc2C1=O            true
 1                                  NC(=O)NO           false
 2                              Nc1cccc(N)c1           false
 3                             Cc1ccc(N)cc1O           false
 4  COc1ccc(/C=C/S(=O)(=O)NC(=O)c2ccc(C)cc2Cl)cc1           false
 5       Cc1c(-c2cccnc2)c2ccccc2n1CCCCC(=O)O           false
 6  O=C(O)c1cc(N=Nc2ccc(S(=O)(=O)Nc3ccccn3)cc2)ccc1O           false
 7  O=C(O)c1cccc(N(Cc2cccnc2)c2ccc(OC(F)F)c(OC(F)F)c2)c1            true
 8                      CCCCCCCCCCCCc1ccccc1            true
 9                        CC(C)=CCCC(C)=CC=O           false
10    COC(=O)c1c(Cl)c(Cl)c(C(=O)OC)c(Cl)c1Cl           false
11  Cc1[nH]cnc1C[C@H]1CCc2c(C)c3ccccc3n2C1=O            true
12                                 CCCCCCCCO           false
13  CCOc1cccc(-n2cc(C(=O)N3CCN(c4cc(C(=O)O)c5ccccc5c4)CC3)nc2-c2ccc(C)cc2)c1            true
14                                  CC(C)CCO           false
15  COCCOc1cc2cc(C(=O)NC3CCN(C(C)C)CC3)n(CC(=O)Nc3ccc(Cl)cn3)c2cn1           false
16  O=C(NS(=O)(=O)/C=C/c1ccccc1)c1ccc(F)cc1Cl           false
17  CCN(C(=O)c1cc(C)cc(OC[C@H](C)Nc2ccncc2)c1)C(C)C           false
18                               O=C1CCCCCN1           false

###

Assay: ATG_PPRE_CIS: Attagene CIS-FACTORIAL HepG2 Assay for human Peroxisome Proliferator-activated Response Element (PPRE) (AID 2282958)
Conditions: HepG2 PPRE cis-element reporter, Attagene transcription factor profiling; actives raise or lower the signal
Calls of active or inactive are those of the source. The calls were made as follows: active = hit-call score of the fitted dose curve at least 0.9, where 1 is the maximum; inactive = score below 0.9.
ENDPOINT: AC50

>>> df
                                    compound   reported_result
 0  O=c1[nH]c2ccc(S(=O)CCN3CCC(Cc4ccc(F)cc4)CC3)cc2o1 (stereo unspecified)          inactive
 1                                 CCCCCCCCO          inactive
 2  O=c1n(CC2CO2)c(=O)n(CC2CO2)c(=O)n1CC1CO1 (stereo unspecified)          inactive
 3                               On1ccccc1=S          inactive
 4  Cn1c(=O)cc(Oc2ccc(F)cc2F)c2cnc(NCC(C)(C)O)nc21          inactive
 5                              Cc1ccc(O)cc1          inactive
 6  CCOC(=O)c1ccc(C2CCC(NC[C@H](O)COc3ccc(O)c(NS(C)(=O)=O)c3)CC2)cc1 (stereo partly specified)  57.5 µM (active)
 7           CN(C)c1ccc(Cc2ccc(N(C)C)cc2)cc1  36.7 µM (active)
 8                          CCCCCCCCCCCCCCCO          inactive
 9  CC(C)CCCCCCOC(=O)c1ccc(C(=O)OCCCCCCC(C)C)c(C(=O)OCCCCCCC(C)C)c1          inactive
10                               CCNc1ccccc1          inactive
11                 O=C(O)c1cccc(Oc2ccccc2)c1  48.3 µM (active)
12  CC[C@H](C)C(=O)O[C@H]1C[C@@H](C)C=C2C=C[C@H](C)[C@H](CC[C@@H]3C[C@@H](O)CC(=O)O3)[C@H]21          inactive
13  Fc1ccccc1[C@@H](F)COC1CCC(Nc2ncnc3[nH]ncc23)CC1 (stereo partly specified)  4.79 µM (active)
14  O=C(CCCCCCCCc1cccnc1)N1CCC(C=C(c2ccccc2)c2ccccc2)CC1  1.07 µM (active)
15  O=C1OC(=O)C2C3C=CC(C3)C12 (stereo unspecified)          inactive
16       Cc1c(-c2cccnc2)c2ccccc2n1CCCCC(=O)O  5.71 µM (active)
17  CC(C)CCCCCCCOC(=O)CCCCC(=O)OCCCCCCCC(C)C          inactive
18                            CC(=O)OCCC(C)C          inactive
19  COc1ccc2sc(C(=O)Nc3nnn[nH]3)c(OC(C)C)c2c1  12.3 µM (active)
20  O=C(O)c1cccc(N(Cc2cccnc2)c2ccc(OC(F)F)c(OC(F)F)c2)c1  25.1 µM (active)
21  CCCCC(CC)COC(=O)c1ccc(C(=O)OCC(CC)CCCC)cc1 (stereo unspecified)          inactive
22  CC[C@H]1CC[C@H](NCc2cc3c(cc2OC)[C@H]2C[C@H]2C(=O)N3C)[C@H](c2ccccc2)N1  75.6 µM (active)
23  COc1ccc(-n2nc(C(F)F)cc2-c2ccc(S(C)=O)cc2)cc1 (stereo unspecified)          inactive
24                   Oc1ccc2c(c1)-c1ccccc1C2  46.4 µM (active)
25                      CCCCCCCCCCCCc1ccccc1          inactive
26    COC(=O)c1c(Cl)c(Cl)c(C(=O)OC)c(Cl)c1Cl          inactive
27  CC/C(=C\C(=N/O)C(N)=O)C(C)[N+](=O)[O-] (stereo unspecified)          inactive
28  CCOc1cccc(-n2cc(C(=O)N3CCN(c4cc(C(=O)O)c5ccccc5c4)CC3)nc2-c2ccc(C)cc2)c1  28.3 µM (active)
29                 CC1(C)C(=O)N(Br)C(=O)N1Br          inactive
30                        C1N2CN3CN1CN(C2)C3          inactive
31   CNCc1ccc(NC(=O)c2c[nH]c3c2C(=O)CCC3)cc1          inactive
32  O=C(O)CCN(C1(C(=O)NO)CCCC1)S(=O)(=O)c1ccc(Oc2ccc(F)cc2)cc1          inactive
33                  Clc1nc(Cl)c(Cl)c(Cl)c1Cl          inactive
34  O=C1CCC(N2C(=O)c3ccccc3C2=O)C(=O)N1 (stereo unspecified)          inactive
35  COc1cccc(-c2ccc(/C=C\CN3CCCCCC3)cc2Cl)c1          inactive
